Protocol text: Fraction unbound in rat plasma by equilibrium dialysis method
Format: ADME, cell-free
Reported property: fraction unbound

{"columns": ["Structure smiles", "Data value"],
 "data": [
  ["COCCCOc1cccc([C@H]2NC(=S)NC3=C2C(=O)c2ccccc23)c1", 0.01],
  ["COCCCOc1cccc([C@H]2NC(=S)Nc3c2oc2ncccc32)c1", 0.085]
]}

====

In this section, each of the compounds is paired with its reported pIC50.
Target: Transient receptor potential cation channel subfamily A member 1 (Rattus norvegicus, UniProt Q6RI86)
Sequence (Q6RI86 whole entry): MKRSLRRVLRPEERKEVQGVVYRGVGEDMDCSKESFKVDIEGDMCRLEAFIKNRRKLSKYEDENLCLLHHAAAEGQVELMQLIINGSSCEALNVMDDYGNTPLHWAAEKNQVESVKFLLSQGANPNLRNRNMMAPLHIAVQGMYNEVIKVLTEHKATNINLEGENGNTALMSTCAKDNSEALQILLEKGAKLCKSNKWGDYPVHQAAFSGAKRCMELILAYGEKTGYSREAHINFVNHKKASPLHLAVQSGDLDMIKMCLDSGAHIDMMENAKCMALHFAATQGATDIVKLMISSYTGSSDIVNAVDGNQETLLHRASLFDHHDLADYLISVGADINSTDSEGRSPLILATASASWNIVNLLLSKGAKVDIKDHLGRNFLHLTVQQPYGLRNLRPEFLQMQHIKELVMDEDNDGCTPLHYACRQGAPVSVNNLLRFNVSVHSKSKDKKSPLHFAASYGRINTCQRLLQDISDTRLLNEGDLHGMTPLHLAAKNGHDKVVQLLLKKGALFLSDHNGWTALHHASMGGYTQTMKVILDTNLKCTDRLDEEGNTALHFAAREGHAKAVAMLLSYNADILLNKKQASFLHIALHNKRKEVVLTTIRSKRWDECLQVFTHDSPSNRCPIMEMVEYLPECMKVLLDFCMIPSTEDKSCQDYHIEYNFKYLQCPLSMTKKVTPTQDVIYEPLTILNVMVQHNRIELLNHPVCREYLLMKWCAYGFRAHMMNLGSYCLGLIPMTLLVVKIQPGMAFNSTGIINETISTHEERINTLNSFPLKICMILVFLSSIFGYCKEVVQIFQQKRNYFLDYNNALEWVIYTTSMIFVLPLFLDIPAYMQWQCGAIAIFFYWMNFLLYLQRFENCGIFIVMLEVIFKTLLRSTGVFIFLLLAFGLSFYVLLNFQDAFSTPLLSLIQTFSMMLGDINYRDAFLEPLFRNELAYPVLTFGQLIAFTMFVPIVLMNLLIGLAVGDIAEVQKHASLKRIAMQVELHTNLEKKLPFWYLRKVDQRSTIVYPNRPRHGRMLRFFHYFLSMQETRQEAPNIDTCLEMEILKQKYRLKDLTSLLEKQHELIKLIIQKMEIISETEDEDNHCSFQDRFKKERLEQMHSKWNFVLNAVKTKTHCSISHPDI
Protocol text: Antagonist activity at rat TRPA1 assessed as inhibition of AITC-induced calcium uptake by [45Ca2+] fluorimetry assay
pIC50: −log10 of the molar value.
Reported property: pIC50

{"columns": ["Compound", "Reported property", "Operator symbol", "Data value"],
 "data": [
  ["O=C1C2=C(NC(=S)NC2c2cccc(OCc3cccnc3)c2)c2ccccc21 (configuration not stated)", "pIC50", "=", 6.44],
  ["COCCCOc1cncc(C2NC(=S)NC3=C2C(=O)c2ccccc23)c1 (configuration not stated)", "pIC50", "=", 6.28],
  ["COCCCOc1cccc([C@H]2NC(=S)Nc3c2oc2ccccc32)c1", "pIC50", "=", 6.64],
  ["COCCCOc1cccc([C@H]2NC(=S)NC3=C2C(=O)c2ccccc23)c1", "pIC50", "=", 7.72],
  ["COCCCOc1cccc([C@H]2NC(=S)Nc3c2oc2ncccc32)c1", "pIC50", "=", 7.35],
  ["COCCCOc1cccc(C2NC(=S)Nc3c2oc2c(F)cccc32)c1 (configuration not stated)", "pIC50", "=", 6.85],
  ["COCCCOc1cccc(C2NC(=S)NC3=C2C(=O)c2ccccc23)n1 (configuration not stated)", "pIC50", "=", 6.00],
  ["COCCCOc1cc(C2NC(=S)NC3=C2C(=O)c2ccccc23)ccn1 (configuration not stated)", "pIC50", "<", 4.40],
  ["COCCCOc1cccc(C2NC(=S)NC3=C2C(=O)c2ccccc23)c1 (racemic)", "pIC50", "=", 7.55],
  ["COCCCOc1ccnc(C2NC(=S)NC3=C2C(=O)c2ccccc23)c1 (configuration not stated)", "pIC50", "<", 5.70],
  ["S=C1Nc2c(oc3ncccc23)C(c2cccc(OCc3cccnc3)c2)N1 (configuration not stated)", "pIC50", "=", 5.89],
  ["O=C1C2=C(NC(=S)NC2c2cccc(OCc3ccccn3)c2)c2ccccc21 (configuration not stated)", "pIC50", "=", 6.64]
]}
